Source listed as paper PMC10421376.

assay: Pharmacokinetics of five iridoids in rat plasma after oral administration of PS extract (UHPLC-ESI-MS/MS); format: in vivo, SD (Sprague Dawley) rats; settings: male, Sprague-Dawley, in vivo; rat plasma, oral PS extract 1 g/kg, n = 6, mean ± SD; read-out: t1/2 (converted)
property: half-life (h)
Please respond with the number in h and leave the unit unwritten.

[in] # get_value(readout='half-life', item= C=C[C@H]1[C@H](O[C@@H]2O[C@H](CO)[C@@H](O)[C@H](O)[C@H]2O)OC=C2C(=O)OCC[C@H]21 [Sweroside, sweroside] )
[out] 1.2

====

test: Pharmacokinetics of five iridoids in rat plasma after oral administration of PS extract (UHPLC-ESI-MS/MS); type: in vivo, SD (Sprague Dawley) rats; conditions: male, Sprague-Dawley, in vivo; rat plasma, oral PS extract 1 g/kg, n = 6, mean ± SD; read-out: AUC0–t
property: AUC(0-t) (ng·h/mL)
Kindly answer with a numeric value in ng·h/mL, unit omitted.

[in] Using the record for C=C[C@H]1[C@H](O[C@@H]2O[C@H](CO)[C@@H](O)[C@H](O)[C@H]2O)OC=C2C(=O)OCC[C@H]21 [Sweroside, sweroside] , report its AUC(0-t).
[out] 261

====

Entries and their measured AUC(0-t) follow.
assay: Pharmacokinetics of five iridoids in rat plasma after oral administration of PS extract (UHPLC-ESI-MS/MS); format: in vivo, SD (Sprague Dawley) rats; settings: male, Sprague-Dawley, rat, in vivo, po, 1 g/kg
Dear colleague, please return just the value in ng·h/mL, with no unit written.

Study these solved cases before continuing.
| compound | units | AUC(0-t) |
| --- | --- | --- |
| COc1cc(C(=O)O[C@H]2[C@@H]3C=CO[C@@H](O[C@@H]4O[C@H](CO)[C@@H](O)[C@H](O)[C@H]4O)[C@@H]3[C@@]3(CO)O[C@@H]23)ccc1O [Picroside-II] | ng·h/mL | 604 |
| COc1ccc(/C=C/C(=O)O[C@H]2[C@@H]3C=CO[C@@H](O[C@@H]4O[C@H](CO)[C@@H](O)[C@H](O)[C@H]4O)[C@@H]3[C@@]3(CO)O[C@@H]23)cc1O [Minecoside, minecoside] | ng·h/mL | 78.9 |

[in] Which AUC(0-t) is listed for O=C(/C=C/c1ccccc1)OC[C@H]1O[C@@H](O[C@@H]2OC=C[C@H]3[C@H](O)[C@@H]4O[C@]4(CO)[C@@H]23)[C@H](O)[C@@H](O)[C@@H]1O [Picroside-I] ?
[out] 361

====

Entries and their AUC(0-inf) values follow.
assay: Pharmacokinetics of five iridoids in rat plasma after oral administration of PS extract (UHPLC-ESI-MS/MS); assay type: in vivo, SD (Sprague Dawley) rats; settings: male, Sprague-Dawley, rat, in vivo, po, 1 g/kg
Express the result in ng·h/mL but write the number alone.

| compound | AUC(0-inf) [ng·h/mL] |
| --- | --- |
| O=C(/C=C/c1ccccc1)OC[C@H]1O[C@@H](O[C@@H]2OC=C[C@H]3[C@H](O)[C@@H]4O[C@]4(CO)[C@@H]23)[C@H](O)[C@@H](O)[C@@H]1O [Picroside-I] | 382 |
| COc1cc(C(=O)O[C@H]2[C@@H]3C=CO[C@@H](O[C@@H]4O[C@H](CO)[C@@H](O)[C@H](O)[C@H]4O)[C@@H]3[C@@]3(CO)O[C@@H]23)ccc1O [Picroside-II] | 611 |

[in] Quick one: AUC(0-inf) of COc1ccc(/C=C/C(=O)O[C@H]2[C@@H]3C=CO[C@@H](O[C@@H]4O[C@H](CO)[C@@H](O)[C@H](O)[C@H]4O)[C@@H]3[C@@]3(CO)O[C@@H]23)cc1O [Minecoside, minecoside] ?
[out] 93.5
